# Tested on: SF-539
# Assay explanation: NCI tumour cell line growth inhibition, 48 h
Activity calls are given as the source filed them. No stated cut-off is given here; in the data, active = GI50 up to about 1.1 µM and inactive = higher. *1 amine or outer side, *2 acyl side, *3 side chain or, on linkers, in order; H or OH if unused. Where a SMILES comes first, the peptide text is derived from it. Bridges are numbered along the chain shown (N, C = ends). Roman numbers before positions name the chains, in order. [ ]: non-standard residue; d: D form. Actinocin(1to9) = Cc1c2oc3c(C)ccc(C(=O)[*:2])c3nc-2c(C(=O)[*:1])c(N)c1=O; NMeV = CN[CH](C(=O)O)C(C)C; Sar = CNCC(=O)O
Possible outcomes: TRUE for active, FALSE for inactive

1. COc1cc(/C=C2/C(=O)N(C(=O)OC(C)C)C(Cc3cc(OC)c(OC)c(C)c3OC)C(=O)N2Cc2ccccc2)c(OC)c(C)c1OC (stereo not given) : FALSE
2. CCc1nc(N)nc(N)c1-c1ccc(Cl)c(Cl)c1 : FALSE
3. Cc1cccc(C)c1NC(=O)C(=O)C1C(=O)N(c2ccccc2)N=C1N (stereo not given) : FALSE
4. COc1c(-c2nc3ccc(N4CCN(C)CC4)nc3[nH]2)cc(OC)c2c1nc(CCl)n2C : FALSE
5. CN(C)C(=S)SCC(N)=O : FALSE
6. COc1ccc(CC2NC(=O)C(NC(=O)c3c4nc5c(C(=O)NC6C(=O)NC(Cc7ccc(OC)cc7)C(=O)N7CCCC7C(=O)N(C)CC(=O)N(C)C(C(C)C)C(=O)OC6C)ccc(C)c5oc-4c(C)c(=O)c3N)C(C)OC(=O)C(C(C)C)N(C)C(=O)CN(C)C(=O)C3CCCN3C2=O)cc1 (stereo not given) (I: TY(Me)P[Sar][NMeV] / II: TY(Me)P[Sar][NMeV]; ester I:1-I:C, II:1-II:C; linker I:N-II:N via Actinocin(1to9); configuration not given here) : TRUE
7. CCC(=O)OC1CCn2c1nc1c2C(=O)C(C)=C(NC(C)=O)C1=O (stereo not given) : FALSE
8. O=c1[nH]c2cc(C(F)(F)F)ccc2nc1C(F)(F)F : FALSE
9. CN(Cc1ccccc1)c1cc(=O)n(C)c(=O)[nH]1 : FALSE
10. O=C(CSCC(=O)N/N=C/c1ccccc1)N/N=C\c1ccccc1 : FALSE
11. CC(C)CC(NC(=O)C(CCI)Cc1ccccc1)C(=O)Nc1ccccc1 (stereo not given) : FALSE
12. O=C1/C(=C/c2cccs2)N=C(c2ccccc2)N1C1Nc2cc3c(cc2S1)NC(N1C(=O)/C(=C/c2cccs2)N=C1c1ccccc1)S3 (stereo not given) : FALSE
13. COc1cc2cnc3c4cc(OCc5ccccc5)ccc4ccc3c2cc1OC : FALSE
14. CCOC(=O)/C=C(\C(=O)OCC)n1cc(C)c(=O)n(Cc2cnnn2CCCCOC(C)=O)c1=O : FALSE
15. CCCCCCCCCCCCCCCC(=O)N(CCCCCCCCCCC(=O)O)CC(O)C(O)C(OC1OC(CO)C(O)C(O)C1O)C(O)CO (stereo not given) : FALSE
16. Cc1[nH]c2c(c1Cc1ccccc1)C1=NC=C(O)NN1C=N2 : FALSE
17. CN(C)CC(/C(Cc1ccccc1)=N\NC(=O)C[n+]1ccccc1)c1ccccc1 (stereo not given) : FALSE
18. Nc1nc(Cl)c(N)c(NCC2(CO)CCC(OCc3ccccc3)C2)n1 (stereo not given) : FALSE
19. CC(N)CC(=O)O (stereo not given) : FALSE
20. CCOC(=O)C(Cc1cn(S(=O)(=O)c2ccc(C)cc2)cn1)P(=O)(OCC)OCC (stereo not given) : FALSE

====

# Tested on: HL-60
# Assay explanation: NCI tumour cell line growth inhibition, 48 h
Calls of active or inactive are those of the source. Cut-off read from the data, not from the text of the source: active = GI50 up to about 1.1 µM and inactive = higher.
Outcome measure: GI50

1) Cn1c(=O)c2c(nc(C(=N)SCC(=O)O)n2C)n(C)c1=O : 27.7 µM (inactive)
2) CC1=C2C3OC(=O)C(C)C3C(O)C[C@@]2(C)C(=O)CC1 (stereo not given in full) : > 100 µM (inactive)
3) Cc1cccc(/C=N/NC(=S)N(C)CCc2ccccn2)n1 : 0.0429 µM (active)
4) C=CC(=O)N1C/C(=C\c2ccc([N+](=O)[O-])cc2)C(=O)/C(=C/c2ccc([N+](=O)[O-])cc2)C1 : > 100 µM (inactive)
5) C#CCOC(=O)C(=[N+]=[N-])C(=O)CC(C)C : > 10 µM (inactive)
6) CCCCCCNC(=O)C1=C(C)NC(C)=C(C(=O)NCCCCCC)C1 : 31 µM (inactive)
7) COC(=O)[C@]12CC[C@H]3CN(C(=O)OCc4ccccc4)[C@H]([C@H]31)[C@H](c1ccco1)N2 : 28.8 µM (inactive)
8) Oc1ccccc1C1C=C(c2ccccc2)NC(N2CCCCC2)=C1c1nc2ccccc2[nH]1 (stereo not given) : 14.2 µM (inactive)
9) CC(=O)OCCCCn1cnc2c(Cl)nc(Nc3ccccc3)nc21 : > 100 µM (inactive)
10) COC(=O)C(=O)C(C(=O)OC)C(=O)C(=O)Nc1cc(Cl)c(Cl)cc1Cl (stereo not given) : > 100 µM (inactive)

====

# Tested on: NCI-H23
# Assay explanation: NCI tumour cell line growth inhibition, 48 h
Calls of active or inactive are those of the source. No stated cut-off is given here; in the data, active = GI50 up to about 1.1 µM and inactive = higher. *1 amine or outer side, *2 acyl side, *3 side chain or, on linkers, in order; H or OH if unused. Where a SMILES comes first, the peptide text is derived from it. Bridges are numbered along the chain shown (N, C = ends). Roman numbers before positions name the chains, in order. [ ]: non-standard residue; d: D form. Actinocin(1to9) = Cc1c2oc3c(C)ccc(C(=O)[*:2])c3nc-2c(C(=O)[*:1])c(N)c1=O; NMeV = CN[CH](C(=O)O)C(C)C; Sar = CNCC(=O)O
Possible outcomes: active, inactive

1) O=C(CCc1ccc(O)c(O)c1)OCCc1ccccc1 : inactive
2) Cc1cccc(N/C(Sc2ccccc2)=C(/C(Cl)=C(Cl)Cl)[N+](=O)[O-])c1 : inactive
3) CC(C)CC(NC(=O)C(CCI)Cc1ccccc1)C(=O)Nc1ccccc1 (stereo not drawn) : inactive
4) C=C(Br)N(CC)CC : inactive
5) O=c1c2ccccc2[nH]c(=S)n1-c1ccc(/N=N/c2cccc3cc(O)ccc23)cc1 : inactive
6) O=C1c2cccc(NCCCNCCO)c2C(=O)c2cccc(NCCCNCCO)c21 : inactive
7) CSC1NC(c2ccc(Cl)cc2)=C(C#N)C(=O)N1C1OCC(OC(C)=O)C(OC(C)=O)C1OC(C)=O (stereo not drawn) : inactive
8) Nc1c(C(=O)c2ccc(Cl)cc2)[nH]c(Nc2ccc(Cl)cc2)c1C(=S)Nc1ccccc1 : inactive
9) COc1ccc(CC2NC(=O)C(NC(=O)c3c4nc5c(C(=O)NC6C(=O)NC(Cc7ccc(OC)cc7)C(=O)N7CCCC7C(=O)N(C)CC(=O)N(C)C(C(C)C)C(=O)OC6C)ccc(C)c5oc-4c(C)c(=O)c3N)C(C)OC(=O)C(C(C)C)N(C)C(=O)CN(C)C(=O)C3CCCN3C2=O)cc1 (stereo not drawn) (I: TY(Me)P[Sar][NMeV] / II: TY(Me)P[Sar][NMeV]; ester I:1-I:C, II:1-II:C; linker I:N-II:N via Actinocin(1to9); configuration not given here) : active
10) O=C(c1cccs1)N(C(=S)N1CCN(c2ccccc2)CC1)c1ccccc1 : inactive
11) CN(C)c1ccc2c3c(c(=O)oc2c1)CCC3 : inactive
12) O=C1/C(=C/c2ccccc2)CN(C(=O)C(Cl)(Cl)Cl)C/C1=C\c1ccccc1 : inactive
13) N#Cc1ccc(-c2nc3c(N)nc(-c4ccccc4)nc3o2)cc1 : inactive
14) CC(=O)c1nccc2c1c(C)nc1ccccc12 : inactive
15) NC1CC(=O)c2cscc21 (stereo not drawn) : inactive
16) CN1CCN=C1c1nnn(-c2ccc([N+](=O)[O-])cc2)c1-c1ccccc1 : inactive
17) CCOC(=O)C(Cc1cn(S(=O)(=O)c2ccc(C)cc2)cn1)P(=O)(OCC)OCC (stereo not drawn) : inactive
18) Cc1c2c(n(CCN(C)C)c1C)NN=C(C#N)S2(=O)=O : inactive
19) O=C1C=CC(=O)c2c(O)nc(CBr)nc21 : inactive
20) c1ccc(-c2ccc(-c3cc4ccccc4[nH]3)cc2)cc1 : inactive
21) O=C1/C(=C/c2ccco2)NC(=S)N1CN1CCOCC1 : inactive
22) COc1c(-c2nc3ccc(N4CCN(C)CC4)nc3[nH]2)cc(OC)c2c1nc(CCl)n2C : inactive
23) CC/C=C\C/C=C\C/C=C\CCCCCCCC(=O)OCC(O)CO (stereo not drawn) : inactive
24) CNC(=S)N/N=C1\C(=O)N(CN2CCOCC2)c2ccc([N+](=O)[O-])cc21 : inactive
25) CCOC(=O)c1c2ccc(/C=C/c3ccccn3)ccc-2c(C(=O)OCC)c1N : inactive
26) C[n+]1c2ccccc2c(/C=N\NS(=O)(=O)c2ccc(Cl)cc2)c2ccccc21 : inactive
27) CCOP(=O)(OCC)/C(C#N)=C/c1cc(O)ccc1O : inactive
28) CONC(C)=O : inactive
29) O=S1(=O)CCN(c2ccccc2CC(c2c[nH]c3ccccc23)c2c[nH]c3ccccc23)CC1 : inactive
30) CCOC(=O)CCC(NC(=O)c1ccc(/N=C/c2nc3ccccc3nc2-c2ccccc2)cc1)C(=O)OCC (stereo not drawn) : inactive
31) C#CCN(Cc1ccc2nc(-c3ccccc3)c(Cl)nc2c1)c1ccc(Cl)c(Cl)c1 : inactive
32) CCOC(=O)NC(=O)c1cn(CCCOC(=O)CCCCCCCCC(=O)OCCCn2cc(C(=O)NC(=O)OCC)c(=O)[nH]c2=O)c(=O)[nH]c1=O : inactive
33) Cc1cc(NS(=O)(=O)c2ccc(Nc3c4ccccc4nc4c(C(=O)NCCO)cccc34)cc2)no1 : inactive
34) CCN(CC)C(=O)c1ccc(C)c(/N=N/N(C)C)c1 : inactive
35) COc1cc([C@@H]2c3cc4c(cc3[C@@H](NCc3ccccc3)C3COC(=O)[C@@H]32)OCO4)cc(OC)c1O (stereo partly drawn) : inactive
36) O=C1CSC(c2ccc(Cl)cc2Cl)N1c1ccc(Oc2ccc(Cl)cc2)c(Cl)c1 (stereo not drawn) : inactive
37) NC(=S)N/N=C/C(O[C@@H](/C=N/NC(N)=S)CO)n1cnc2c(N)ncnc21 (stereo partly drawn) : inactive
38) Nc1nc(=O)n(C2CC(O)C(O)C(CO)O2)cc1F (stereo not drawn) : inactive
